Reference for the values: BindingDB's records for patent WO2025049746

Target: Bifunctional 3'-5' exonuclease/ATP-dependent helicase WRN [480-1251] (UniProt Q14191)
Construct: 480-1251
Sequence (Q14191 480-1251): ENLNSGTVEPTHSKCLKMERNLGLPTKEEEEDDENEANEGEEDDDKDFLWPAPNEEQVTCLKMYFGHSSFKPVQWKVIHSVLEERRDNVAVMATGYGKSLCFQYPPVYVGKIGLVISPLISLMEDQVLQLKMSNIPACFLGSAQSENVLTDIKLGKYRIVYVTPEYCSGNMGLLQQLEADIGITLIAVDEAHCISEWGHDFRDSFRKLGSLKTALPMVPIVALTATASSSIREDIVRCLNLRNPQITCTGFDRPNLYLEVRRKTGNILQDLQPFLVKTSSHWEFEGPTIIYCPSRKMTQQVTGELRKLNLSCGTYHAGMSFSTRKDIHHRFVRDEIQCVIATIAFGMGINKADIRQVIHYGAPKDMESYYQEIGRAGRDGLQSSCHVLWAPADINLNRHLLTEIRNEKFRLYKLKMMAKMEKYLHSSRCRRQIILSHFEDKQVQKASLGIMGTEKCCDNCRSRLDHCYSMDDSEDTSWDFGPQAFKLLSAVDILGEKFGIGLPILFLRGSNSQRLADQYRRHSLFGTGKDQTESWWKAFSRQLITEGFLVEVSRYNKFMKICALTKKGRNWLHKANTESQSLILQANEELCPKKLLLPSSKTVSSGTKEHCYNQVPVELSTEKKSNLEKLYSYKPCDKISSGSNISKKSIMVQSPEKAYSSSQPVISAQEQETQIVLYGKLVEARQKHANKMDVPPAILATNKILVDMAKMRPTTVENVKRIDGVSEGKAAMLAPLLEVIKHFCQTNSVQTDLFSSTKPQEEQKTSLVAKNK
Assay: Biochemical Activity Assays
Procedure: The pure fractions were pooled and desalted/buffer exchanged into storage buffer using a HiTrap desalting column. […] First, WRN alone was pre-incubated with DMSO or compound of interest for 15 minutes. To initiate the reaction, ATP, dsDNA substrate, and ssDNA competitor (ssDNA_comp: […]) were added and incubated at room temperature for 20 minutes at which point DNA unwinding activity was monitored by measuring Cy3 fluorescence. […]
MEASURE: log10 of IC50 (log10 of the value in nM)
Log10 applied to IC50; unit prior to transform: nM.

compound CCc1c(N2CCN(C(=O)c3ncnc(C)c3O)CC2)c(=O)n2nc(-c3ccc4[nH]c(=O)ccc4c3)nc2n1CC(=O)Nc1ccc(C(F)(F)F)cc1Cl , log10 of IC50 observed: 1.38

Note to self: log10 of IC50 recorded for CCc1c(N2CCN(C(=O)c3nccc4nn[nH]c34)CC2)c(=O)n2nc(C3=CCOCC3)nc2n1CC(=O)Nc1ccc(C(F)(F)F)cc1Cl was 1.30

Value of measured log10 of IC50 for the entry CCc1c(N2CCN(C(=O)c3ncnc(C)c3O)CC2)c(=O)n2nc(-c3ccc4nn(C(C)C)cc4c3)nc2n1CC(=O)Nc1ccc(C(F)(F)F)cc1Cl : 1.49

Summary for this compound, CCc1c(N2CCN(C(=O)c3ncnc(C)c3O)CC2)c(=O)n2nc(-c3cccc4c3CCOC4)nc2n1CC(=O)Nc1ccc(C(F)(F)F)cc1Cl : log10 of IC50 is 1.82

Measured log10 of IC50 of CCc1c(N2CCN(C(=O)c3ncnc(C)c3O)CC2)c(=O)n2nc(-c3ccc4c(c3)C(C)(C)OC4)nc2n1CC(=O)Nc1ccc(C(F)(F)F)cc1Cl : 1.62

For this compound ( CCc1c(N2CCN(C(=O)c3cn(C)nc3O)CC2)c(=O)n2nc(N(C)C)nc2n1CC(=O)Nc1ccc(C(F)(F)F)cc1Cl ), measured log10 of IC50 is 1.65

Per the records, this compound ( CCc1c(N2CCN(C(=O)c3ncnc(C)c3O)CC2)c(=O)n2nc(-c3ccc4c(c3)CC(=O)N4)nc2n1CC(=O)Nc1ccc(C(F)(F)F)cc1Cl ) has log10 of IC50 equal to 1.53

Just so you know, measured log10 of IC50 for CCc1c(N2CCN(C(=O)c3ncnc(C)c3O)[C@H]3CC[C@H]32)c(=O)n2nc(-c3ccc4c(c3)COC4(C)C)nc2n1CC(=O)Nc1ccc(C(F)(F)F)cc1Cl came out at 1.65

So for CCc1c(N2CCN(C(=O)c3nccc4nc[nH]c34)CC2)c(=O)n2nc(N(C)C)nc2n1CC(=O)Nc1ccc(C(F)(F)F)c2c1CC2 , the logged log10 of IC50 turned out to be 1.19

The compound listed as CCc1c(N2CCN(S(C)(=O)=O)CC2)c(=O)n2nc(C3=CCOCC3)nc2n1CC(=O)Nc1ccc(C(F)(F)F)cc1Cl has a reported log10 of IC50 of 1.52

In plain terms, CCc1c(N2CCN(C(=O)c3ncnc(C)c3O)CC2)c(=O)n2nc(-c3cccc4c3OCO4)nc2n1CC(=O)Nc1c(Cl)cc(C(F)(F)F)c2c1CC2 has a documented log10 of IC50 of 1.94

Kindly note the recorded log10 of IC50 for CCc1c(N2CCN(C(=O)c3cn(C)[nH]c3=O)CC2)c(=O)n2nc(C3=CCOCC3)nc2n1CC(=O)Nc1ccc(C(F)(F)F)cc1Cl , which is 1.41

###

target: Bifunctional 3'-5' exonuclease/ATP-dependent helicase WRN [480-1251] (UniProt Q14191); construct: 480-1251; assay: Biochemical Activity Assays
Here the recorded log10 IC50 is given for each entry.
Response schema: value (number) is log10 of IC50 in units of µM.

Solved entries (count: 5):
> print(dat)
                                   molecule  reported.value
1  CCc1c(N2CCN(C(=O)c3ncnc(C)c3O)CC2)c(=O)n2nc(N3CCCOCC3)nc2n1CC(=O)Nc1ccc(C(F)(F)F)cc1Cl           -1.31
2  CCc1c(N2CCN(C(=O)c3ncnc(C)c3O)CC2)c(=O)n2nc(-c3ccc4conc4c3)nc2n1CC(=O)Nc1ccc(C(F)(F)F)cc1Cl           -1.40
3  CCc1c(N2CCN(C(=O)/C=C/C(=O)c3ccc(OC)cc3)CC2)c(=O)n2nc(C3=CCOCC3)nc2n1CC(=O)Nc1ccc(C(F)(F)F)cc1Cl           -0.62
4  CCc1c(N2CCN(C(=O)c3ncnc(C)c3O)CC2)c(=O)n2nc(-c3cccc4c3OCC4)nc2n1CC(=O)Nc1ccc(C(F)(F)F)cc1Cl           -1.31
5  CCc1c(N2CCN(C(=O)c3ncnc(C)c3O)CC2)c(=O)n2nc(-c3ccc4c(c3)CCN4C)nc2n1CC(=O)Nc1ccc(C(F)(F)F)cc1Cl           -1.49

// log10 IC50 value for CCc1c(N2CCN(C(=O)c3ncnc(C)c3O)CC2)c(=O)n2nc(-c3ccc4c(cnn4CC(F)F)c3)nc2n1CC(=O)Nc1ccc(C(F)(F)F)cc1Cl : -1.47

CCc1c(N2CCN(C(=O)c3nc4n(c(=O)c3O)CCOC4)CC2)c(=O)n2nc(-c3ccc4c(c3)CCOC4)nc2n1CC(=O)Nc1ccc(C(F)(F)F)cc1Cl yielded log10 IC50 of -1.53

For this molecule ( CCc1c(N2CCN(C(=O)c3ncnc(C)c3O)CC2)c(=O)n2nc(-c3cc4ccnn4cc3F)nc2n1CC(=O)Nc1ccc(C(F)(F)F)cc1Cl ), measured log10 IC50 is -1.74

The value of log10 IC50 measured for the molecule CCc1c(N2CCC3C2CCCN3C(=O)c2ncnc(C)c2O)c(=O)n2nc(C3=CCOCC3)nc2n1CC(=O)Nc1ccc(C(F)(F)F)cc1Cl (stereo unspecified) turned out to be -1.08

Reported log10 IC50 of CCc1c(N2CCN(C(=O)c3ncnc(C)c3O)CC2)c(=O)n2nc(-c3ccc4c(c3)CCC4OC(F)F)nc2n1CC(=O)Nc1ccc(C(F)(F)F)cc1Cl (stereo unspecified) : -1.05

###

target: Bifunctional 3'-5' exonuclease/ATP-dependent helicase WRN (Homo sapiens, UniProt Q14191); assay: ADP-Glo Kinase Assay
Sequence (Q14191 whole entry): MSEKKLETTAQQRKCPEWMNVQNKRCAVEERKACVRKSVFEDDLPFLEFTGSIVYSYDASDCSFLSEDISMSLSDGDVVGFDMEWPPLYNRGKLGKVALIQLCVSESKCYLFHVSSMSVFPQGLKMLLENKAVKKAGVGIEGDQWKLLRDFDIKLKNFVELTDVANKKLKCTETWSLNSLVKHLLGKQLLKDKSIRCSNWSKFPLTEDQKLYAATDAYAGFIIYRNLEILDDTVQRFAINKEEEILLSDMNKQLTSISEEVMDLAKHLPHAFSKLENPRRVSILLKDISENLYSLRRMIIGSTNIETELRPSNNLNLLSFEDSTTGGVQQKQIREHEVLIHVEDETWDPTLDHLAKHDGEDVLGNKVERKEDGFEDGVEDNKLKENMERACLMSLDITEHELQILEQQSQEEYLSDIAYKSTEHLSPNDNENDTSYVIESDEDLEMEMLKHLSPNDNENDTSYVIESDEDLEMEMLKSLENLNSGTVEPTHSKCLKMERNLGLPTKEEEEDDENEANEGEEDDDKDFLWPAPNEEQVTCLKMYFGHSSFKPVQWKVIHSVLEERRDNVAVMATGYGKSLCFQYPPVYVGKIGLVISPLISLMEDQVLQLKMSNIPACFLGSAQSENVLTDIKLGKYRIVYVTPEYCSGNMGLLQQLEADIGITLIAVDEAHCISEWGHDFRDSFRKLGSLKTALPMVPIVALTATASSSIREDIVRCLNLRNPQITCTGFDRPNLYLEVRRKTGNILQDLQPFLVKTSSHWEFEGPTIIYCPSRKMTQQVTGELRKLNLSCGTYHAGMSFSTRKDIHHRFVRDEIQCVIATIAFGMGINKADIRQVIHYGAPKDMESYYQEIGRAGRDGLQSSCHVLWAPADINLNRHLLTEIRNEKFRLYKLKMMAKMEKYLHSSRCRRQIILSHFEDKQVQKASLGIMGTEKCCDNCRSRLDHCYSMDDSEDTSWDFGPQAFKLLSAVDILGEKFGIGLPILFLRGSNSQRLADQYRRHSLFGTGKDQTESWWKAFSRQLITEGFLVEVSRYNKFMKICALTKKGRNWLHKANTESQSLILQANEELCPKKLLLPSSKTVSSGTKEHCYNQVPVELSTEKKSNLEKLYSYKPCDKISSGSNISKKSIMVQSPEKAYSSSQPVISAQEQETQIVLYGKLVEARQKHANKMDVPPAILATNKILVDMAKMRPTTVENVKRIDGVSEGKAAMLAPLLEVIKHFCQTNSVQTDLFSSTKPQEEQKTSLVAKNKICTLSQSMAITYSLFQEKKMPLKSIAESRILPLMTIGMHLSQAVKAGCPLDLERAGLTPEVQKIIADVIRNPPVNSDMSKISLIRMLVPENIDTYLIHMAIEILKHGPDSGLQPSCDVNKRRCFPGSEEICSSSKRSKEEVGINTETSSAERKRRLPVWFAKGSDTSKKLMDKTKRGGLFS
Reported values of IC50 for individual entries
State the answer as a number, implicitly in µM.

Consider the worked cases shown below.
> print(dat)
                                   compound  units.symbol  reported.value
1  CCc1c(N2CCN(C(=O)c3nc4n(c(=O)c3O)CCOC4)CC2)c(=O)n2nc(N(C)C)nc2n1CC(=O)Nc1ccc(C(F)(F)F)c2c1CC2            µM          0.0134
2  CCc1c(N2CCN(C(=O)c3ncnc(C)c3O)CC2)c(=O)n2nc(-c3cnn4c3COCC4)nc2n1CC(=O)Nc1ccc(C(F)(F)F)cc1Cl            µM          0.0886
3  CCc1c(N2CCN(C(=O)c3ncnc(C)c3O)CC2)c(=O)n2nc(-c3cc(F)c4c(c3)COC4(C)C)nc2n1CC(=O)Nc1ccc(C(F)(F)F)cc1Cl            µM           0.086
4  CCc1c(N2CCN(C(=O)c3ncnc(C)c3O)CC2)c(=O)n2nc(-c3ccc4c(c3)COC4(C)C)nc2n1CC(=O)Nc1ccc(C(F)(F)F)cc1Cl            µM           0.044

IC50 measured on CCc1c(N2CCN(C(=O)c3cccc[n+]3[O-])CC2)c(=O)n2nc(C3=CCOCC3)nc2n1CC(=O)Nc1ccc(C(F)(F)F)cc1Cl = 0.13

###

biological target: Bifunctional 3'-5' exonuclease/ATP-dependent helicase WRN [480-1251] (UniProt Q14191); construct: 480-1251; assay: Biochemical Activity Assays
Output satisfied for records whose IC50 is lower than 30 nM, not satisfied for records at or above 30 nM.

Observe how each entry below is paired with its result.
COMPOUND	ASSIGNED CATEGORY
CCc1c(N2CCN(C(=O)c3ccccc3NS(=O)(=O)C3CC3)CC2)c(=O)n2nc(-c3cccc4c3OCCO4)nc2n1CC(=O)Nc1ccc(C(F)(F)F)cc1Cl [WO2025049746, Example 379]	not satisfied
CCc1c(N2CCN(C(=O)c3nc4n(c(=O)c3O)CCOC4)CC2)c(=O)n2nc(-c3ccc4c(c3)COC4(C)C)nc2n1CC(=O)Nc1ccc(C(F)(F)F)cc1Cl [WO2025049746, Example 462]	not satisfied
CCc1c(N2CCN(C(=O)c3ncnc(C)c3O)CC2)c(=O)n2nc(-c3cccc4c3OCCO4)nc2n1CC(=O)Nc1ccc(C(F)(F)F)c2c1CC2 [WO2025049746, Example 97]	satisfied
CCc1c(N2CCN(C(=O)c3ncnc(C)c3O)[C@@H]3CC[C@@H]32)c(=O)n2nc(-c3ccc4c(c3)COC4(C)C)nc2n1CC(=O)Nc1ccc(C(F)(F)F)cc1Cl [WO2025049746, Example 459]	not satisfied
CCc1c(N2CCN(C(=O)c3ncnc(C)c3O)CC2)c(=O)n2nc(-c3ccc4occc4c3)nc2n1CC(=O)Nc1ccc(C(F)(F)F)cc1Cl [WO2025049746, Example 283]	not satisfied

Does this compound meet the criterion IC50 < 30 nM? CCc1c(N2CCN(C(=O)c3ncnc(C)c3O)CC2)c(=O)n2nc(C3=CCOCC3)nc2n1CC(=O)NC12CC(CCC(F)(F)F)(C1)C2 [WO2025049746, Example 361]
not satisfied
